Across several publications, the following IC50 results were reported for Serine/threonine-protein kinase pim-1 (Homo sapiens, UniProt P11309).
Answers are plain numbers, in nM.

Use these answered entries as a reference point.
C[C@@H]1C[C@H](N)C[C@H](c2ccncc2NC(=O)c2ccc(F)c(-c3c(F)cc(O[C@@H]4CCCOC4)cc3F)n2)C1
0.02
N[C@H]1CCCN(c2ccnc3cnc(-c4cccc(-c5nccs5)n4)cc23)C1
6
CCC(=O)c1cc(F)c(-c2nc(C(=O)Nc3cnccc3N3C[C@@H](N)[C@H](O)[C@@H](C)C3)ccc2F)c(F)c1
0.02
N[C@@H]1CCN([C@@H](c2ccc3nnc(-c4ccc5cccc(C6CC6)c5n4)n3c2)C(F)(F)F)C1
0.14

// batch mode: one IC50 value per listed entry
1. COC(C)(C)c1cc(F)c(-c2nc(C(=O)Nc3cnccc3N3C[C@@H](N)[C@H](O)[C@@H](C)C3)ccc2F)c(F)c1
2. C[C@@H]1C[C@H](N)C[C@H](c2ccncc2NC(=O)c2ccc(F)c(-c3c(F)cc(OCCN4CCCC4=O)cc3F)n2)C1
3. COC(C)(C)c1cc(F)c(-c2nc(C(=O)Nc3cnccc3[C@H]3C[C@@H](N)[C@H](O)[C@@H](C)C3)c(N)cc2F)c(F)c1
4. C[C@@H]1C[C@H](N)C[C@H](c2ccncc2NC(=O)c2csc(-c3c(F)cccc3F)n2)C1
5. CCc1cccc2ccc(-c3nnc4ccc([C@@H](N5C[C@@H](O)[C@H](O)C5)C(F)(F)F)cn34)nc12

1. 0.02
2. 0.02
3. 0.04
4. 1
5. 0.17

// batch mode: one IC50 value per listed entry
1. CC(C)n1c(N2CCNCC2)nc2c(Br)c(Br)c(Br)c(Br)c21
2. Brc1c(Br)c(Br)c2[nH]c(Nc3ccncc3)nc2c1Br
3. C[C@@H]1C[C@H](N)C[C@H](c2ccncc2NC(=O)c2ccc(F)c(-c3c(F)ccc(OC[C@@H](O)CO)c3F)n2)C1

6.84
37
0.03

// batch mode: one IC50 value per listed entry
1. C[C@H]1CN(c2ccncc2NC(=O)c2ccc(F)c(-c3c(F)cc(C4(F)CCOCC4)cc3F)n2)C[C@@H](N)[C@@H]1O
2. NCC1CCN(c2cc(Cl)cc3ccc(-c4nnc5ccccn45)nc23)CC1
3. CN(C)CCN1CCN(c2nc3c(Br)c(Br)c(Br)c(Br)c3[nH]2)CC1

1: 0.01; 2: 32; 3: 36.8

###

Across several publications, the following log10 of IC50 results were reported for Serine/threonine-protein kinase pim-1 (Homo sapiens).
# values: log10(IC50), units nM

Use these answered entries as a reference point.
CC(=O)NCC[C@H]1CNC(=O)c2cc(-c3cccc(OC(F)(F)F)c3)c(-c3ccccc3)n21
1.53
N[C@@H]1CN(c2ccnc3ccc(-c4cccc(-c5nccs5)n4)cc23)CC[C@H]1O
0.95

// batch mode: one log10 of IC50 value per listed entry
1. C[C@@H]1C[C@H](N)C[C@H](c2ccncc2NC(=O)c2ccc(F)c(-c3c(F)cc(OC[C@H](O)CO)cc3F)n2)C1
2. CC(C)(O)COc1cc(F)cc2ccc(-c3nnc4ccc([C@@H](N5CC[C@H](N)C5)C(F)(F)F)cn34)nc12
3. Cc1nccn1CC1CCCN(c2nc3c(Br)c(Br)c(Br)c(Br)c3[nH]2)C1 (stereo not drawn)

1: -2.00; 2: -0.92; 3: 1.79
